target: Neuronal acetylcholine receptor subunit alpha-7 (Rattus norvegicus); assay: Displacement of [3H]methyllylcaconitine from alpha7 nAChR in rat brain; assay type: tissue-based
Sequence (Q05941 whole entry): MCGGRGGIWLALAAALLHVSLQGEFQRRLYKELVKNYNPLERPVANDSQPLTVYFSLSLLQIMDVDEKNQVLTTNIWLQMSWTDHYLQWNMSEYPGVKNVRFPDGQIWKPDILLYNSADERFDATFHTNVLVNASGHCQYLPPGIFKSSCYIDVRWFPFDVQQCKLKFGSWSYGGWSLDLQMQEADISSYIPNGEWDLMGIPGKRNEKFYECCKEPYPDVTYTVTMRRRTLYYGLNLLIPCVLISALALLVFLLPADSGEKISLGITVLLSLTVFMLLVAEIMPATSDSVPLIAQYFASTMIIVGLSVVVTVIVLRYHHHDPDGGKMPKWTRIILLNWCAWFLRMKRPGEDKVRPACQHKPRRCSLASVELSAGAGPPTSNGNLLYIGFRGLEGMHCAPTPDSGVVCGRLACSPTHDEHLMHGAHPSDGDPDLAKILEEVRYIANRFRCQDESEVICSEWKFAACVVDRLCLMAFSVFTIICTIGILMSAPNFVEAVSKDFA
Mark true (1) only for Ki values smaller than 0.09 µM; exact matches and larger values are false (0).

>>> assignedcategory("CCN(CC)CCOc1ccc2c(c1)S(=O)(=O)c1cc(OCCN(CC)CC)ccc1-2")
"false (0)"
>>> assignedcategory("O=C1c2ccccc2-c2ccc(N3CCN4CCC3CC4)cc21")
"true (1)"
>>> assignedcategory("CCN(CC)CCOc1ccc2c(c1)C(=O)c1cc(OCCOC)ccc1-2")
"false (0)"
>>> assignedcategory("CN1CC[C@@H](Oc2ccc3c(c2)C(=O)c2cc(O[C@@H]4CCN(C)C4)ccc2-3)C1")
"true (1)"
>>> assignedcategory("CC[N+](C)(CC)CCOc1ccc2c(c1)C(=O)c1cc(OCC[N+](C)(CC)CC)ccc1-2")
"true (1)"
>>> assignedcategory("CCN(CC)CCOc1ccc2c(c1)Cc1cc(OCCN(CC)CC)ccc1-2")
"false (0)"
>>> assignedcategory("CN1CC2CN(c3ccc4oc5ccccc5c(=O)c4c3)CC2C1 (stereo not given)")
"true (1)"
>>> assignedcategory("O=c1c2ccccc2oc2ccc(O[C@H]3CN4CCC3CC4)cc12")
"true (1)"
>>> assignedcategory("CCN(CC)CCOc1ccc2ccc(OCCN(CC)CC)cc2c1")
"false (0)"

Cited source for all entries: ChEMBL document CHEMBL1949494
